meta.source: the RNAGym collection of RNA variant scans (doi:10.1073/pnas.2313332121)

B1: TPR t1 (parent)
chain: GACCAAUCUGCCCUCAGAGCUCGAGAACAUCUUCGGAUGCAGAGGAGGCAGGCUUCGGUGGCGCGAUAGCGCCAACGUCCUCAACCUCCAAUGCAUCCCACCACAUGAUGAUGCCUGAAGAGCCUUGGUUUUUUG

variants of: B1; test: polymerase ribozyme fitness, log enrichment relative to wild type (log ratio); higher = more active; in vitro selection for triplet polymerase activity
Output: class label from polymerase ribozyme fitness (log ratio). Mapping: bin 1: < -5; bin 2: ≥ -5 and < -2; bin 3: ≥ -2

Some entries whose results are on file:
G17C C85G : bin 1
U14G G47C C70U C85G G117A : bin 1
C28U A108G : bin 2
U92C C99G G113U : bin 1
G19U C40U : bin 2

Kindly state the category for this variant: A5G C13G A37G
bin 3

Kindly state the category for this variant: C8G G135U
bin 3

Kindly state the category for this variant: G44A G48C A74U
bin 2

Kindly state the category for this variant: G60C G61C C73G C101G A111U G113C C123U U125G U126G
bin 1

Kindly state the category for this variant: A74U G117A U130C
bin 2

Kindly state the category for this variant: C12U A41U
bin 3
